Molecular target: LC3B (human, UniProt Q9GZQ8 1-125)
Assay: ITC
parameter: pKd
A value of pKd is the negative decimal logarithm of a concentration given in moles per litre.

Requested field: pKd. Item: PEDDWTEFSSEEIREARQAAASHAPS [AnkG LIR (AnkG WT peptide, rat 480 kD AnkG residues 1985-2010)] 6.47
